target: purified catalytic domain of recombinant human TACE (rhTACEc) (Homo sapiens, UniProt P78536, N452Q/S266A); construct: rhTACEc, Residue 215 to 477 with two mutation (S266A and N452Q) and a 6xHis tail; 6xHis (C); made in house; host or cells: baculovirus/Hi5 insect cells; assay: TACE kinetic assay, cleavage of internally quenched fluorescent peptide substrate SPDL-3; type: biochemical; details: TACE inhibition, Table 1; read-out: Ki Rating
Sequence (P78536 215-477 S266A/N452Q): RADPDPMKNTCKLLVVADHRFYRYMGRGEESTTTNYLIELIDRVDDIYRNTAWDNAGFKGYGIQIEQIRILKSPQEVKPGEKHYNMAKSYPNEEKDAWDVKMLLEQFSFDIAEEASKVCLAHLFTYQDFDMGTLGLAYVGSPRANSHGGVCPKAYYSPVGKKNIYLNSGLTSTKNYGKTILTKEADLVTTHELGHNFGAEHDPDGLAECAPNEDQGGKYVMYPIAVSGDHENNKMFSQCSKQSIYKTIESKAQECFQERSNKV
pKi: −log10 of the molar value.
pKi overview

Sample records with pKi:
COc1ccc2c(c1)C(=O)N(CC1(CC(=O)N3CCOCC3)NC(=O)NC1=O)C2 (centres unmarked) :: 7.00 to 8.00
COC(=O)c1ccc([C@]2(CN3Cc4ccc(OC)cc4C3=O)NC(=O)NC2=O)cc1 :: > 8.00

Attention now shifts to the item below.
(Q) Data request, read-out pKi, for COC(=O)c1cc(-c2ccc([C@]3(CN4Cc5ccc(OC)cc5C4=O)NC(=O)NC3=O)cc2)cnc1N
(A) > 8.00

###

target: purified catalytic domain of recombinant human TACE (rhTACEc) (Homo sapiens, UniProt P78536, N452Q/S266A); construct: rhTACEc, Residue 215 to 477 with two mutation (S266A and N452Q) and a 6xHis tail; 6xHis (C); made in house; host or cells: baculovirus/Hi5 insect cells; experiment: TACE kinetic assay, cleavage of internally quenched fluorescent peptide substrate SPDL-3; type: biochemical; settings: TACE inhibition, Table 1; read-out: Ki Rating
pKi: −log10 of the molar value.
Catalogue of pKi values

Worked cases, pKi given:
COc1ccc2c(c1)C(=O)N(C[C@@]1(c3ccc(-c4cc(C(=O)NC5CC5)cc(C)n4)cc3)NC(=O)NC1=O)C2 :: > 8.00
COc1ccc2c(c1)C(=O)N(C[C@@]1(c3ccc(Oc4cccc(C(N)=O)c4)cc3)NC(=O)NC1=O)C2 :: > 8.00
COc1ccc2c(c1)C(=O)N(CC1(c3ccc(C(=O)N(C)C)cc3)NC(=O)NC1=O)C2 (centres unmarked) :: 7.00 to 8.00

(Q) Would you kindly share the measured pKi for N#Cc1ccc2c(c1)CN(CC1(c3ccc(F)cc3)NC(=O)NC1=O)C2=O (centres unmarked) ?
(A) 7.00 to 8.00

(Q) Query COC(=O)c1cc(C)nc(-c2ccc([C@]3(CN4Cc5ccc(OC)cc5C4=O)NC(=O)NC3=O)cc2)c1 next
(A) > 8.00

###

In this section, each of the molecules is paired with its reported Ki.
molecular target: purified catalytic domain of recombinant human TACE (rhTACEc) (Homo sapiens, UniProt P78536, N452Q/S266A); construct: rhTACEc, Residue 215 to 477 with two mutation (S266A and N452Q) and a 6xHis tail; 6xHis (C); made in house; host or cells: baculovirus/Hi5 insect cells; assay: TACE kinetic assay, cleavage of internally quenched fluorescent peptide substrate SPDL-3; type: biochemical; details: TACE inhibition, Table 1; read-out: Ki Rating

Take a look at these entries with their results.
COc1ccc2c(c1)C(=O)N(C[C@@]1(c3ccc(-c4ncccc4C#N)cc3)NC(=O)NC1=O)C2 [Compound 66] :: < 10 nM
COc1ccc2c(c1)C(=O)N(C[C@@]1(c3ccc(-c4cccnc4C#N)cc3)NC(=O)NC1=O)C2 [Compound 104] :: < 10 nM
O=C1NC(=O)C(CN2Cc3ccsc3C2=O)(c2ccc(F)cc2)N1 (centres unmarked) [Compound 26] :: 10 to 100 nM
COc1ccc2c(c1)C(=O)N(C[C@@]1(c3ccc(-c4cc(C(=O)NC5CC5)ccn4)cc3)NC(=O)NC1=O)C2 [Compound 60] :: < 10 nM

# evaluate next
(Q) Give its Ki value. Item: COc1ccc2c(c1)C(=O)N(C[C@]1(c3ccc(S(C)(=O)=O)cc3)NC(=O)NC1=O)C2 [Compound 42]
(A) 100 to 1000 nM
